This collection of values is drawn from patent US20230174608A1.

Tested target: GLP-1 receptor (GLP-1R), stably expressed on HEK293 cells
Procedure text: cell-based or functional assay
Where no end group is shown, it is not given here. [ ]: non-standard residue; d: D form. Aib = CC(C)(N)C(=O)O
Readout label: GLP-1R (nM EC50), receptor-mediated cAMP production in HEK293 cells (nM)
The reply should contain only the number, in nM.

Some solved entries appear below for comparison.
Q. Fill in GLP-1R (nM EC50), receptor-mediated cAMP production in HEK293 cells for record HSQGTFTSDYSKYLDERAAKEFIAWLEAGG-NH2 (not fully specified (residue 20); printed as HSQGTFTSDYSKYLDERAAK*EFIAWLEAGG) [dgc001]
A. 1.13

Q. Supply GLP-1R (nM EC50), receptor-mediated cAMP production in HEK293 cells value. Item: H[Aib]QGTFTSDYSKYLEERAAKEFIAWLEAGG-NH2 (not fully specified (residue 20)) [dgc006]
A. 0.472

Next, consider the following binder.
Q. Specify reported GLP-1R (nM EC50), receptor-mediated cAMP production in HEK293 cells for the binder shown: H[Aib]QGTFTSDYSKYLEERAAKEFIAWLEGEG-NH2 (not fully specified (residue 20); printed as HAibQGTFTSDYSKYLEERAAK*EFIAWLEGEG) [dgc021]
A. 0.382
